- tested_target: Pfs25, monomeric, produced in Nicotiana benthamiana (Plasmodium falciparum (NF54; identical …, UniProt P13829)
- Sequence (P13829 22-193): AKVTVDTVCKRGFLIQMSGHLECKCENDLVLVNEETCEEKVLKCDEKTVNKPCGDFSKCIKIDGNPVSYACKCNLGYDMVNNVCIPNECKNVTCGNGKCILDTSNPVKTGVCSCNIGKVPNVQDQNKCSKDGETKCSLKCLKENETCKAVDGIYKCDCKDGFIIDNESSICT
- experimental_details: BLI
- protocol_conditions: both partners purified
property_label: koff (s⁻¹)
Dear colleague, please return just the value in s⁻¹, with no unit written.

Looking up 1269 Fab (Fab, V domains shown, source: HEK293F, transiently expressed, purified (KappaSelect or LambdaSelect, MonoS, Superdex 200)) VH: EVQLVESGGGLVQSGGSLRLSCAASGFTFSRNAMNWVRQAPGKGLEWVSTISGSGDSTYYADSVKGRFTISRDNSKNTLYLQVNSLRAEDTAVYYCAKGDYYFDSGSYSFGMDVWGQGTTVTVSS VL: EIVLTQSPGTLSLSPGERATLSCRTSQSVSSSYLAWYQQKPGQAPRLLMYGASSRATGIPDRFSGSGSGTDFTLTISRLEPEDFAVYYCQQYGNSFGQGTRLEIK , I found its koff recorded as 0.00084
